Values from patent US7829665B2

# Target or test system: full-length NS3/NS4A-2 (HCV NS3 protease) (Hepatitis C virus genotype 1a)
# Construct: Recombinant E. coli or Baculovirus full-length NS3 was diluted to 3.33 μM with assay buffer; made in house; host or cells: E. coli or baculovirus (BV) expression system
# Sequence (P27958 1027-1657): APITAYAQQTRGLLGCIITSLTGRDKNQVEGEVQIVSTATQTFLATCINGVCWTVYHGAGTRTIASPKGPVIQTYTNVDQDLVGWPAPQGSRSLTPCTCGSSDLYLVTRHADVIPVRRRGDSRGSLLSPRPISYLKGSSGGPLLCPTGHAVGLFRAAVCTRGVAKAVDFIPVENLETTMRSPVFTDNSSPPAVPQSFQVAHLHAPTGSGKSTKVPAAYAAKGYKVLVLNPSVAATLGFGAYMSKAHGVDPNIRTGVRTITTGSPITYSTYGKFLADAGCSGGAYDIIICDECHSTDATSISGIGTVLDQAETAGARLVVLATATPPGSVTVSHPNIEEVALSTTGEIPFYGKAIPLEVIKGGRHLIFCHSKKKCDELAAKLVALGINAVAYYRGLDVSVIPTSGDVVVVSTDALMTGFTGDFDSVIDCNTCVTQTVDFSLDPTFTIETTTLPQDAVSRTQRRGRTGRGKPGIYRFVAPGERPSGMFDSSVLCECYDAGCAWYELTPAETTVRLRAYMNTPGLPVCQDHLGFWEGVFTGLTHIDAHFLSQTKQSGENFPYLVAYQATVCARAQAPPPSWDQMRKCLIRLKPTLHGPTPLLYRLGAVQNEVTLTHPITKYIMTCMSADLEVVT
# Protocol: NS3-NS4 protease assay / NS3 inhibition assay (RETS1 substrate, fluorescence kinetic read)
# Format: biochemical
# Condition details: recombinant E. coli or Baculovirus full-length NS3 with NS4A-2; read-out: NS3-NS4 IC50
# Procedure: NS3 complex formation with NS4A-2. Recombinant E. coli or Baculovirus full-length NS3 was diluted to 3.33 μM with assay buffer and transferred material to an eppendorf tube and place in water bath in 4° C. refrigerator. The appropriate amount of NS4A-2 to 8.3 mM in assay buffer was added to equal the volume of NS3 in step 2.1.1 (conversion factor—3.8 mg/272 μL assay buffer). […] Read the plate in kinetic mode on the Molecular Devices SpectraMax Gemini XS plate reader. […]
pIC50: −log10 of the molar value.

[
  {
    "Compound": "CC(C)(C)OC(=O)N[C@H]1CCCCC/C=C\\[C@@H]2C[C@@]2(C(=O)NS(=O)(=O)N2Cc3ccccc3C2)NC(=O)[C@@H]2CCCN2C1=O [Compound 409]",
    "pIC50": "> 5.00"
  },
  {
    "Compound": "CC(C)(C)OCC(=O)N[C@H]1CCCCC/C=C\\[C@@H]2C[C@@]2(C(=O)NS(=O)(=O)C2CC2)NC(=O)[C@@H]2C[C@@H](OC(=O)N3Cc4cccc(Cl)c4C3)CN2C1=O [Compound 266]",
    "pIC50": "> 7.00"
  },
  {
    "Compound": "CC(C)(C)OC(=O)N[C@H]1CCCCC/C=C\\[C@@H]2C[C@@]2(C(=O)NS(=O)(=O)c2cccc(Cl)c2)NC(=O)[C@@H]2CCCN2C1=O [Compound 2110]",
    "pIC50": "> 5.00"
  },
  {
    "Compound": "CC(C)(C)OC(=O)N[C@H]1CCCCC/C=C\\[C@@H]2C[C@@]2(C(=O)NCC(O)(C(F)(F)F)C(F)(F)F)NC(=O)[C@@H]2CCCN2C1=O [Compound 503]",
    "pIC50": "< 5.00"
  },
  {
    "Compound": "CC(C)(C)c1c(N[C@H]2CCCCC/C=C\\[C@@H]3C[C@@]3(C(=O)NS(=O)(=O)C3CC3)NC(=O)[C@@H]3C[C@@H](OC(=O)N4Cc5cccc(F)c5C4)CN3C2=O)c(=O)c1=O [Compound 261]",
    "pIC50": "> 7.00"
  },
  {
    "Compound": "CNC(=O)[C@@H](NC(=O)[C@@]12C[C@H]1/C=C\\CCCCC[C@H](NC(=O)OC(C)(C)C)C(=O)N1C[C@H](OC(=O)N3Cc4cccc(F)c4C3)C[C@H]1C(=O)N2)c1ccc(F)cc1 [Compound 631]",
    "pIC50": "> 7.00"
  },
  {
    "Compound": "CN(C)C(=O)[C@@]12C[C@H]1/C=C\\CCCCC[C@H](NC(=O)OC(C)(C)C)C(=O)N1C[C@H](OC(=O)N3Cc4cccc(F)c4C3)C[C@H]1C(=O)N2 [Compound 610]",
    "pIC50": "> 6.00"
  },
  {
    "Compound": "CC(C)(C)OC(=O)N[C@H]1CCCCC/C=C\\[C@@H]2C[C@@]2(C(=O)NS(=O)(=O)C2(Cc3ccccc3)CC2)NC(=O)[C@@H]2C[C@@H](OC(=O)N3Cc4cccc(Cl)c4C3)CN2C1=O [Compound 161]",
    "pIC50": "> 7.00"
  },
  {
    "Compound": "CN(C)CCOc1ccc2c(c1)CN(C(=O)O[C@@H]1C[C@H]3C(=O)N[C@]4(C(=O)NS(=O)(=O)C5CC5)C[C@H]4/C=C\\CCCCC[C@H](NC(=O)OC4CCCC4)C(=O)N3C1)C2 [Compound 134]",
    "pIC50": "> 7.00"
  },
  {
    "Compound": "O=C1N[C@]2(C(=O)NS(=O)(=O)C3CC3)C[C@H]2/C=C\\CCCCC[C@H](Nc2c(N3CCC3)c(=O)c2=O)C(=O)N2C[C@H](OC(=O)N3CCc4ccccc4C3)C[C@@H]12 [Compound 242]",
    "pIC50": "> 7.00"
  }
]
